Item-by-item account of TGI
Tested on: DMS 114 small cell lung
Assay: NCI tumour cell line growth inhibition, 48 h
Measurement name: TGI

compound_string=CC[C@H](C)C(=O)O[C@H]1C[C@@H](C)C=C2C=C[C@H](C)[C@H](CC[C@@H]3C[C@@H](O)CC(=O)O3)[C@H]21 target_system="DMS 114 small cell lung" measurement_name=TGI measured_value="> 30 µM"
compound_string=COC(=O)CCC(=O)Nc1cc(C)ccc1C target_system="DMS 114 small cell lung" measurement_name=TGI measured_value="> 100 µM"
compound_string=COc1cc2ccnc(-c3n[nH]c4cc(OC)c(OC)cc34)c2cc1OC target_system="DMS 114 small cell lung" measurement_name=TGI measured_value="> 100 µM"

---

Tested on: BT-549 breast
Assay: NCI tumour cell line growth inhibition, 48 h
Measurement name: TGI

compound=CNc1ccc(Cl)cc1C(=O)N1CCC[C@H]1CO measured_value="> 100 µM"
compound="COC(=O)C(Cc1ccccc1)NP(=O)(O)OCC1OC(n2ccc(N)nc2=O)C(O)C1O (stereo not drawn)" measured_value="> 100 µM"
compound="COC(=O)C1OC(SCCN)C(O)C(O)C1O (stereo not drawn)" measured_value="> 100 µM"

---

Tested on: SK-MEL-5 melanoma
Assay: NCI tumour cell line growth inhibition, 48 h
Item-by-item account of TGI
Measurement name: TGI

compound_string=Clc1cccc(/C=c2\nc(-c3ccccc3)n3c2nc2ccccc23)c1 measured_value="> 100 µM"
compound_string=CC1=CC[C@@H]2C(=O)C=CC=C[C@H]12.[C-]#[O+].[C-]#[O+].[C-]#[O+].[Fe] measured_value="> 100 µM"
compound_string=Cc1c(-c2cc(-c3ccccc3)n[nH]c2=O)c2ccccc2n1C measured_value="> 100 µM"

---

Item-by-item account of TGI
System: LOX IMVI melanoma
Assay: NCI tumour cell line growth inhibition, 48 h
Measurement name: TGI

compound=COc1cc(-c2cn(-c3ccc(F)cc3)c(=O)[nH]2)cc(OC)c1OC target_system="LOX IMVI melanoma" measured_value="> 100 µM"
compound=CC1=CC[C@@H]2C(=O)C=CC=C[C@H]12.[C-]#[O+].[C-]#[O+].[C-]#[O+].[Fe] target_system="LOX IMVI melanoma" measured_value="> 100 µM"
compound="CC(NC(=O)c1ccc(OP(=O)(OCc2ccc([N+](=O)[O-])o2)N(C)CCCCCl)cc1)c1ccc(OCC2CCCCC2)c(C(N)=O)c1 (stereo unspecified)" target_system="LOX IMVI melanoma" measured_value="5.43 µM"
compound=COc1ccc2c3c([nH]c2c1)[C@H](C=C(C)C)N1C(=O)[C@@H]2CCCN2C(=O)[C@@H]1C3 target_system="LOX IMVI melanoma" measured_value="> 100 µM"
compound=Cn1c(=S)c2[nH]c(SCc3cccnc3)nc2n(C)c1=O target_system="LOX IMVI melanoma" measured_value="> 100 µM"
compound=C=CCc1cccc(/C(O)=C/C(=O)/C=C/c2ccccc2Cl)c1O target_system="LOX IMVI melanoma" measured_value="24.6 µM"
compound=CCOC(=O)n1ccc2c(C(=O)OC)c(C(=O)OC)cc(/C(=C/C(=O)OC)C(=O)OC)c21 target_system="LOX IMVI melanoma" measured_value="> 100 µM"
compound=N#CCc1nc(-c2cc3ccc(O)cc3oc2=O)cs1 target_system="LOX IMVI melanoma" measured_value="> 100 µM"
compound=O=C1CCCc2cc3c(cc21)CC1(C3)Cc2cc3c(cc2C1)C(=O)CCC3 target_system="LOX IMVI melanoma" measured_value="> 65.3 µM"
compound=CCOC(=O)c1nc2ccc(C(F)(F)F)cc2nc1NCc1ccc(F)cc1 target_system="LOX IMVI melanoma" measured_value="> 100 µM"
compound="O=C(O)C(C(F)(F)F)C(F)(F)F (tested in a mixture with another compound)" target_system="LOX IMVI melanoma" measured_value="> 100 µM"
compound=OCCCN=C1N=C(Cl)/C(=C\c2ccccc2)N1 target_system="LOX IMVI melanoma" measured_value="> 100 µM"
compound=CNc1cc(Cl)ccc1C(=O)N1CCC[C@H]1CO target_system="LOX IMVI melanoma" measured_value="> 100 µM"
compound="O=S(C(c1ccccc1)=P(c1ccccc1)(c1ccccc1)c1ccccc1)c1ccc(Cl)cc1 (stereo unspecified)" target_system="LOX IMVI melanoma" measured_value="> 100 µM"
compound=CCOC(=O)/C=C(\C(=O)OCC)n1cc(C)c(=O)n(Cc2cn(COCCOC(C)=O)nn2)c1=O target_system="LOX IMVI melanoma" measured_value="35.8 µM"
compound=O=c1oc2ccccc2c(O)c1Cc1ccccc1Cc1c(O)c2ccccc2oc1=O target_system="LOX IMVI melanoma" measured_value="> 100 µM"
compound=Nc1nc(N)c2cc(S(=O)(=O)c3ccccc3)ccc2n1 target_system="LOX IMVI melanoma" measured_value="> 100 µM"
compound="O[C@]12c3ccccc3C1CCCC2N1CCOCC1 (stereo partly specified)" target_system="LOX IMVI melanoma" measured_value="> 100 µM"
compound=CCN(CC)CCOc1ccccc1-n1c(C)ccc1-c1ccccc1 target_system="LOX IMVI melanoma" measured_value="34.5 µM"
compound="Cc1ccc(C2SCc3nc4ccccc4n32)cc1 (stereo unspecified)" target_system="LOX IMVI melanoma" measured_value="40.6 µM"
compound=Nc1ccc(Cc2ccc(N)c(C(=O)O)c2)cc1C(=O)O target_system="LOX IMVI melanoma" measured_value="> 100 µM"
compound="COC(=O)C(Cc1ccccc1)NP(=O)(O)OCC1OC(n2ccc(N)nc2=O)C(O)C1O (stereo unspecified)" target_system="LOX IMVI melanoma" measured_value="> 100 µM"
compound=COc1ccccc1NC(=O)C1=C(C)NC(C)=C(C(=O)Nc2ccccc2OC)C1c1ccc(C2C(C(=O)Nc3ccccc3OC)=C(C)NC(C)=C2C(=O)Nc2ccccc2OC)cc1 target_system="LOX IMVI melanoma" measured_value="2.67 µM"
compound=Nc1ccccc1-n1c2c(c3ccccc3c1=O)C(=O)c1ccccc1-2 target_system="LOX IMVI melanoma" measured_value="> 100 µM"
compound="CCCCSCCC(N)P(=O)(O)O (stereo unspecified)" target_system="LOX IMVI melanoma" measured_value="> 100 µM"
compound=Cc1cccc(/C=N/N=C(\N)NO)n1 target_system="LOX IMVI melanoma" measured_value="52.8 µM"
